# TARGET_ENTITY: Phosphatidylinositol 4,5-bisphosphate 3-kinase catalytic subunit delta isoform (Homo sapiens) (UniProt O00329);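 note: reported values are mean percent inhibition of PI3K-delta activity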
# Sequence (whole entry): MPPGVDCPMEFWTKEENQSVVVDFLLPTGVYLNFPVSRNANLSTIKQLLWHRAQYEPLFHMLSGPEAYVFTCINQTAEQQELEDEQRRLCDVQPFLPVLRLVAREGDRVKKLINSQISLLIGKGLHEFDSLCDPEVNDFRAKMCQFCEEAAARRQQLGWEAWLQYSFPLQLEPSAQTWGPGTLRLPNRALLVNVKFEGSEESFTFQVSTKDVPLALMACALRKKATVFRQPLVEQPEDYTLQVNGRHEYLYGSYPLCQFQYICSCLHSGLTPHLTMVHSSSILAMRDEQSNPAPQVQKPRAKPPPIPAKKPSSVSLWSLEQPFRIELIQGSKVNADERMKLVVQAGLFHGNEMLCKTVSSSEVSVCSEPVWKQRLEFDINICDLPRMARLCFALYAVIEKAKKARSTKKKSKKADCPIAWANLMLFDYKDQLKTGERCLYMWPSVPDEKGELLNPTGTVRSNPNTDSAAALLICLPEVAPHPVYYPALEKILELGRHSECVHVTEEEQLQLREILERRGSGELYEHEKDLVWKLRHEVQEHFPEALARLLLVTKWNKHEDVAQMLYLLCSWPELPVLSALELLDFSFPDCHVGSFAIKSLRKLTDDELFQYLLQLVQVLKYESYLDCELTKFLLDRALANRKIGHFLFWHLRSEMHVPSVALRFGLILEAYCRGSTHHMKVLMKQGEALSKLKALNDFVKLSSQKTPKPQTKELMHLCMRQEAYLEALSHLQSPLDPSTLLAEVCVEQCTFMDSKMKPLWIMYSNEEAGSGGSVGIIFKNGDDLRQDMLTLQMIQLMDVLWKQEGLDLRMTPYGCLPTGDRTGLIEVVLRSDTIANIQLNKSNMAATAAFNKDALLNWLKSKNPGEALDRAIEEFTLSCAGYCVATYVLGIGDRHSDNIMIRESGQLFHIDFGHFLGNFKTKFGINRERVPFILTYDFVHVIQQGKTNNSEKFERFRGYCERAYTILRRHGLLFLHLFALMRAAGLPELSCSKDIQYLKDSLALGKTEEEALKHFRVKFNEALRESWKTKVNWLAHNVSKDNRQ
# TEST_CONDITIONS: at 1 µM
Please go through the items and note down their inhibition.
The figure you give is taken to be in %; do not add the unit.

Reported inhibition, compound `Fc1cccc(COc2ccc(Nc3ncnc4sc(-c5cccs5)cc34)cc2Cl)c1` : ____
2.29

Reported inhibition, compound `Cc1nnc(-c2ccc(C)c(-c3ccc(C(=O)Nc4cccc(C#N)c4)cc3)c2)o1` : ____
1.12

Reported inhibition, compound `CS(=O)(=O)Nc1ccc(N/C=C2\C(=O)Nc3ccccc32)cc1` : ____
-0.45

Reported inhibition, compound `NC(=O)c1cccc(Nc2nccc(Nc3cccc4[nH]ncc34)n2)c1` : ____
10.7

Reported inhibition, compound `Cc1cccc(-c2n[nH]cc2-c2ccc3ncccc3n2)n1` : ____
0.53

====

# TARGET_ENTITY: Ephrin type-B receptor 2 (Homo sapiens) (UniProt P29323)
# Sequence (P29323 whole entry): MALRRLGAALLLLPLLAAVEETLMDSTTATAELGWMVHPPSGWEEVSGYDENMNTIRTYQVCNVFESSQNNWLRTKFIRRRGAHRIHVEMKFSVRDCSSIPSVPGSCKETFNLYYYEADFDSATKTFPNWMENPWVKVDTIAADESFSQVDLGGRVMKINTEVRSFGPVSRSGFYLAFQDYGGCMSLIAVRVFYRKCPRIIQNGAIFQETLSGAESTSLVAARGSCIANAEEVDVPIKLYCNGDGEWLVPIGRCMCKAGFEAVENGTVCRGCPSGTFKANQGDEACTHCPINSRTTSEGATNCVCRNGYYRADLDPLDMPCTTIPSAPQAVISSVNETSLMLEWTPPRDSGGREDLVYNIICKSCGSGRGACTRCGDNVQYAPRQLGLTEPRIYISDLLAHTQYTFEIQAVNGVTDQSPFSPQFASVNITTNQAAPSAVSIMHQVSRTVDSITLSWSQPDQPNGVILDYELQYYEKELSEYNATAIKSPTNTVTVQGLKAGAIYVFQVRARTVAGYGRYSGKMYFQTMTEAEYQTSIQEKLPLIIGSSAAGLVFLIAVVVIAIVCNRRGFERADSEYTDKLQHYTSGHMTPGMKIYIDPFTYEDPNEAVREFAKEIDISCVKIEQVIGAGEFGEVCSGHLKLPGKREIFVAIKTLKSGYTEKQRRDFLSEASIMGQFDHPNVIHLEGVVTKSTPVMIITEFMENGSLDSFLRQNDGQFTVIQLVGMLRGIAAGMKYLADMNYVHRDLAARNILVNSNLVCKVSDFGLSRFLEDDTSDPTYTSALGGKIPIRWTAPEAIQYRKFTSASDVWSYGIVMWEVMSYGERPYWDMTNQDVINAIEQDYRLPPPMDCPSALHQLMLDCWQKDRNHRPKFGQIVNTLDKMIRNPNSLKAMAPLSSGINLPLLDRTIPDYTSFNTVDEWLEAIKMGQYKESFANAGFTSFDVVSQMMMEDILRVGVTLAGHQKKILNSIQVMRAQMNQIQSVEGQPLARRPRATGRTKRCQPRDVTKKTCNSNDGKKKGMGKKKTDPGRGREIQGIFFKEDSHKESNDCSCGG
# TEST_CONDITIONS: at 1 µM
# Description: GSK_PKIS: EPHB2 mean inhibition at 1 uM [Nanosyn]
ENDPOINT_LABEL: inhibition (%)
The figure you give is taken to be in %; do not add the unit.

Reported inhibition, molecule `COc1ccc(COc2ccc(Cc3cnc(N)nc3N)cc2OC)cc1` : ____
8.3

Reported inhibition, molecule `CS(=O)(=O)CCNCc1ccc(-c2ccc3ncnc(Nc4ccc(OCc5ccccc5)c(Cl)c4)c3c2)o1` : ____
11.5

Reported inhibition, molecule `Cc1ccc(NC(=O)c2ccnc(N3CCCC3)c2)cc1-c1ccc(C(=O)NCC2CC2)cc1` : ____
6.65

Reported inhibition, molecule `CS(=O)(=O)CCN(CC#N)Cc1ccc(-c2ccc3ncnc(Nc4ccc(OCc5cccc(F)c5)c(Cl)c4)c3c2)o1` : ____
4.79

Reported inhibition, molecule `O=C1Nc2ccc(C(=O)c3ccco3)cc2C1=Cc1cc(Cl)c(O)c(Cl)c1` : ____
15

====

Please go through the items and note down their inhibition.
# TARGET_ENTITY: Mitogen-activated protein kinase 3 (Homo sapiens) (UniProt P27361);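 note: values are mean percent inhibition of MAPK3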
# Sequence (P27361 whole entry): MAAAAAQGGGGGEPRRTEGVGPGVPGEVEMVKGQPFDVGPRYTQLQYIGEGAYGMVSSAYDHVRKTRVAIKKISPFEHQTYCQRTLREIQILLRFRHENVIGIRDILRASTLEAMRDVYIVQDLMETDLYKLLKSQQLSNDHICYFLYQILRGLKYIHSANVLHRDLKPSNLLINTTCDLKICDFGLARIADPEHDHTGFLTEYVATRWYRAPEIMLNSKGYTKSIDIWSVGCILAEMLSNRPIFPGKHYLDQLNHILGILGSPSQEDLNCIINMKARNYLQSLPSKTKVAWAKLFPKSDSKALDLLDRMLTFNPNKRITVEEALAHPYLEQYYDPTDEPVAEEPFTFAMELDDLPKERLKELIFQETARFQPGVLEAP
# TEST_CONDITIONS: at 1 µM
The figure you give is taken to be in %; do not add the unit.

Reported inhibition, molecule `Nc1nc(-c2ccc3c(c2)C(=Cc2cc(Br)c(O)c(Br)c2)C(=O)N3)cs1` : ____
1.82

Reported inhibition, molecule `CCn1c(-c2nonc2N)nc2c(N3CCCC3)nccc21` : ____
1.82

Reported inhibition, molecule `COC(=O)Nc1nc2cc(Oc3cccc(NC(=O)Nc4cc(C(F)(F)F)ccc4F)c3)ccc2[nH]1` : ____
0.49

Reported inhibition, molecule `NC(=O)c1ccc(-c2nc(-c3ccccn3)c(-c3ccc4c(c3)OCO4)[nH]2)cc1` : ____
1.38

Reported inhibition, molecule `COc1cc2ncn(-c3cc(O[C@H](C)c4ccccc4Cl)c(C(N)=O)s3)c2cc1OC` : ____
4.54

Reported inhibition, molecule `[O-][S+]1CCN(Cc2ccc(-c3ccc4ncnc(Nc5ccc(OCc6ccccc6)c(F)c5)c4c3)o2)CC1` : ____
-0.07

Reported inhibition, molecule `COc1cc2c(cc1Nc1nc(N3CCc4ccccc43)c3cc[nH]c3n1)N(C(=O)CN(C)C)CC2` : ____
1.51

Reported inhibition, molecule `CN(C)c1cc2c(Nc3ccc4nc(Cc5ccccc5)[nH]c4c3)ncnc2cn1` : ____
4.66

Reported inhibition, molecule `Cc1cccc(-c2n[nH]cc2-c2ccc3ncccc3n2)n1` : ____
0.82

Reported inhibition, molecule `Fc1cccc(COc2ccc(Nc3ncnc4cc(-c5ccc[nH]5)sc34)cc2Cl)c1` : ____
1.55

Reported inhibition, molecule `COc1cc(C)c(NC(=O)CN(C)C)cc1Nc1nc(Nc2cccc(F)c2C(N)=O)c2cc[nH]c2n1` : ____
0.63

Reported inhibition, molecule `NS(=O)(=O)c1cccc(-c2ccc3c(NC(=O)C4CC4)n[nH]c3c2)c1` : ____
-0.05

Reported inhibition, molecule `CC(=O)Nc1cccc(C#Cc2cncnc2Nc2ccc(OCc3cccc(F)c3)c(Cl)c2)n1` : ____
1.62

====

# TARGET_ENTITY: Tyrosine-protein kinase ABL1 (Homo sapiens) (UniProt P00519);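 note: reported values are mean percent inhibition of ABL1 kinase activity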
# Sequence (P00519 whole entry): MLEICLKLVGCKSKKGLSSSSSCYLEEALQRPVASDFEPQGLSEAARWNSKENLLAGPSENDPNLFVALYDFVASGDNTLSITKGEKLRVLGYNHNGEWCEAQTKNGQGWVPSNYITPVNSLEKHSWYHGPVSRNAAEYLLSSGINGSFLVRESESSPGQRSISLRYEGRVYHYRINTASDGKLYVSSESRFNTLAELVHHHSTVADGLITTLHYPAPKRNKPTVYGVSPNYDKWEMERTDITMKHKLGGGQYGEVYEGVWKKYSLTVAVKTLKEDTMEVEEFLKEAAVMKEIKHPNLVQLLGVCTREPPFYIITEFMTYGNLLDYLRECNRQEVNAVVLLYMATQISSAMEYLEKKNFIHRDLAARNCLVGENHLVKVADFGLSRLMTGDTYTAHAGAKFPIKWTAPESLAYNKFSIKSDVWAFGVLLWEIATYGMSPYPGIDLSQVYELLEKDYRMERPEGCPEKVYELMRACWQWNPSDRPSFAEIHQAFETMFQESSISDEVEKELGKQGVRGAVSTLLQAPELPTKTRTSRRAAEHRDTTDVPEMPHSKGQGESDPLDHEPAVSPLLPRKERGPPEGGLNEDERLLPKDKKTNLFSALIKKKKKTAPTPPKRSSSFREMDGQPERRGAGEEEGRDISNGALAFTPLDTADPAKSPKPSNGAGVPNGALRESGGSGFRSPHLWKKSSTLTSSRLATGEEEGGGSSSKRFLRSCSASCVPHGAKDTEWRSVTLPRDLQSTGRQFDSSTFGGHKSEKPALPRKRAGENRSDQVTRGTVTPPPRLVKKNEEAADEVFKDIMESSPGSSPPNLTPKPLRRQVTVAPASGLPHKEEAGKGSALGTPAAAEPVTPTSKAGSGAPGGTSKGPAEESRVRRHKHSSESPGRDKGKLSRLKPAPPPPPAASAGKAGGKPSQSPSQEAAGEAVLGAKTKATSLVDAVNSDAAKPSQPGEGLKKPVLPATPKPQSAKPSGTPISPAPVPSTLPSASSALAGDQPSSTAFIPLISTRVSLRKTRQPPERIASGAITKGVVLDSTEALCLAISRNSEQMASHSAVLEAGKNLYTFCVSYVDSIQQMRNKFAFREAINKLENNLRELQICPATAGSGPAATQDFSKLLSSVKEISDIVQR
# TEST_CONDITIONS: at 1 µM
ENDPOINT_LABEL: inhibition (%)
The figure you give is taken to be in %; do not add the unit.

Reported inhibition, compound `CCc1cccc(NC(=O)Nc2ccc(Oc3ccc4nc(NC(=O)OC)[nH]c4c3)cc2)c1` : ____
23.8

Reported inhibition, compound `COc1ccc(-c2ccncc2)cc1C(N)=O` : ____
5.76

Reported inhibition, compound `O=C1NC(=O)C(c2cccc(Cl)c2)=C1Nc1ccc(O)c(Cl)c1` : ____
7.89

Reported inhibition, compound `COc1cc2ncn(-c3cc(O[C@H](C)c4ccccc4Cl)c(C(N)=O)s3)c2cc1OC` : ____
47.2

Reported inhibition, compound `COc1cc2c(cc1Nc1nc(N3CCc4ccccc43)c3cc[nH]c3n1)N(C(=O)CN(C)C)CC2` : ____
7.27

Reported inhibition, compound `Cc1nnc(-c2ccc(C)c(-c3ccc(C(=O)Nc4cccc(C#N)c4)cc3)c2)o1` : ____
5.81

Reported inhibition, compound `Nc1nc(-c2ccccn2)c(-c2ccc3ncccc3n2)s1` : ____
12.5

Reported inhibition, compound `Cc1cccc(-c2n[nH]cc2-c2ccc3ncccc3n2)n1` : ____
37.2

====

# TARGET_ENTITY: Mast/stem cell growth factor receptor Kit (Homo sapiens) (UniProt P10721);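 note: values given as mean inhibition of KIT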
# Sequence (P10721 whole entry): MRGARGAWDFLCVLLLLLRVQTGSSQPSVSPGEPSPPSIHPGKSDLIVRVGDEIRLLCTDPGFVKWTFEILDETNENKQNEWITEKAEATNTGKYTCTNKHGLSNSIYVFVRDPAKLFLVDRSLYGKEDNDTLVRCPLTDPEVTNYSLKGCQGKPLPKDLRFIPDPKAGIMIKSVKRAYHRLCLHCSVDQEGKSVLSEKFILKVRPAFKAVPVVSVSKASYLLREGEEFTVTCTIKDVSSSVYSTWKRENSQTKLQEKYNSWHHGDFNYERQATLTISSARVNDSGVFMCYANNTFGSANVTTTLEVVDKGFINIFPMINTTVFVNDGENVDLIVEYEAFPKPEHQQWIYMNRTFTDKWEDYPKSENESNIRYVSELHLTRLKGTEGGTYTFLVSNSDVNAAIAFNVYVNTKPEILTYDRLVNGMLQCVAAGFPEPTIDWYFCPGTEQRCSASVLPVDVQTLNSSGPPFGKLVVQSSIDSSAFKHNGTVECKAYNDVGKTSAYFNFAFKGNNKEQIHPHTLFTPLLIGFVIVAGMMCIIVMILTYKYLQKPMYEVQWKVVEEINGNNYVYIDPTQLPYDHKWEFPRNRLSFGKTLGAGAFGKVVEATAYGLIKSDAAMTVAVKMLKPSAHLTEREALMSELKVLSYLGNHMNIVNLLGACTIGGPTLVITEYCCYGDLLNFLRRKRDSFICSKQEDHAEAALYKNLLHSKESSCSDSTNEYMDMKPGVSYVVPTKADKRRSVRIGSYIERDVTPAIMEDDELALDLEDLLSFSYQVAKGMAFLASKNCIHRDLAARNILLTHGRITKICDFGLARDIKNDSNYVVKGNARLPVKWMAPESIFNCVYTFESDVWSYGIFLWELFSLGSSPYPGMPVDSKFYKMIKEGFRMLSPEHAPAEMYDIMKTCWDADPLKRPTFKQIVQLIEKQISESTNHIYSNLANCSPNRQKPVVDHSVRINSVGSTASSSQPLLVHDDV
# TEST_CONDITIONS: at 1 µM
Please go through the items and note down their inhibition.
The figure you give is taken to be in %; do not add the unit.

Reported inhibition, compound `N#Cc1c(NC(=O)c2cccc3ccccc23)sc2c1CCCC2` : ____
0.84

Reported inhibition, compound `O=C1NC(=O)C(c2ccccc2Cl)=C1Nc1cccc(O)c1` : ____
0.62

Reported inhibition, compound `NC(=O)c1ccc(-c2nc(-c3ccccn3)c(-c3ccc4c(c3)OCO4)[nH]2)cc1` : ____
4.68

Reported inhibition, compound `CCn1c(-c2nonc2N)nc2cncc(C(=O)N3CC[C@H](N)C3)c21` : ____
6.77

Reported inhibition, compound `Cc1nn(C)c2cc(N(C)c3ccnc(Nc4cccc(S(N)(=O)=O)c4)n3)ccc12` : ____
88

Reported inhibition, compound `COc1cc2ncn(-c3cc(OCc4ccccc4Cl)c(C(N)=O)s3)c2cc1OC` : ____
15.6

Reported inhibition, compound `Cc1nnc(-c2ccc(C)c(-c3ccc(C(=O)Nc4cccc(C#N)c4)cc3)c2)o1` : ____
6.9

Reported inhibition, compound CC1=C(C(=O)Nc2ccc3[nH]ncc3c2)C(c2ccc3ccccc3c2)CC(=O)N1 (stereo not given) : ____
7.55

Reported inhibition, compound `COc1ccccc1Nc1ncc(-c2ccccc2)o1` : ____
98.2

Reported inhibition, compound `O=C1NC(=O)C(c2ccc(Cl)cc2)=C1Nc1ccc(Cl)c(C(=O)O)c1` : ____
-0.38

Reported inhibition, compound `CNC(=O)c1cncc(/C=C/c2c(Cl)cccc2Cl)c1` : ____
33.4

Reported inhibition, compound `COc1cccc(-n2ncc3c(N/N=C/c4cccc(F)c4)ncnc32)c1` : ____
14.1

Reported inhibition, compound `CCN1CCC(CC(=O)Nc2n[nH]c3nc(-c4cccs4)c(Br)cc23)CC1` : ____
-0.08

Reported inhibition, compound `CS(=O)(=O)CCNCc1ccc(-c2ccc3ncnc(Nc4ccc(OCc5cccc(F)c5)c(C(F)(F)F)c4)c3c2)o1` : ____
4.6

Reported inhibition, compound `CS(=O)(=O)CCNCc1ccc(-c2ccc3ncnc(Nc4ccc(OCc5ccccc5)c(Cl)c4)c3c2)o1` : ____
1.79

Reported inhibition, compound COc1ccc2cc(-c3c(-c4ccncc4)nc(-c4ccc([S+](C)[O-])cc4)n3C)ccc2c1 (stereo not given) : ____
-0.76

Reported inhibition, compound `[O-][S+]1CCN(Cc2ccc(-c3ccc4ncnc(Nc5ccc(OCc6ccccc6)c(F)c5)c4c3)o2)CC1` : ____
3.42

Reported inhibition, compound `COC(=O)Nc1nc2cc(Oc3cccc(NC(=O)Nc4cc(C(F)(F)F)ccc4F)c3)ccc2[nH]1` : ____
48.2

Reported inhibition, compound `NS(=O)(=O)c1ccc(N/N=C2\C(=O)Nc3ccc(C(=O)NCCc4c[nH]cn4)cc32)cc1` : ____
7.76

Reported inhibition, compound `COc1cc(C=NNc2ncnc3c2cnn3-c2ccccc2)ccc1O` : ____
67
